Biological target: Pneumocystis carinii dihydrofolate reductase (Pneumocystis carinii)
Sequence (P16184 1-206): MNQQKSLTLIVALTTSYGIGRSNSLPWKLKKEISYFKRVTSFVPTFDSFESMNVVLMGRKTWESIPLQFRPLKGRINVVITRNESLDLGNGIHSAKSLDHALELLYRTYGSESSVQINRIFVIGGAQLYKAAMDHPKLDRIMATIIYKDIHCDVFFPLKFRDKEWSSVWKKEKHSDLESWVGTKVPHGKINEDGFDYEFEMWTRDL
Assay: biochemical
Type: biochemical
Settings: DHFR inhibition (IC50 μM) P.carinii, expt 1 (replicate assays on different days)
assay_readout: IC50 (µM)
Give the value in µM but do not write µM after it.

Nc1nc(N)c2nc(CN3c4ccccc4C=Cc4ccccc43)cnc2n1 [Example 7]; 0.24

Now, please, on to the next compound.
IC50 recorded for this compound, Nc1nc(N)c2nc(CN3c4ccccc4CCc4ccccc43)cnc2n1 [Example 6] , is 1.7

----------
biological target: Toxoplasma gondii dihydrofolate reductase (Toxoplasma gondii); assay: biochemical; conditions: mean of replicate assays; read-out: DHFR inhibition (IC50 μM) T.gondii
Sequence (Q07422 whole entry): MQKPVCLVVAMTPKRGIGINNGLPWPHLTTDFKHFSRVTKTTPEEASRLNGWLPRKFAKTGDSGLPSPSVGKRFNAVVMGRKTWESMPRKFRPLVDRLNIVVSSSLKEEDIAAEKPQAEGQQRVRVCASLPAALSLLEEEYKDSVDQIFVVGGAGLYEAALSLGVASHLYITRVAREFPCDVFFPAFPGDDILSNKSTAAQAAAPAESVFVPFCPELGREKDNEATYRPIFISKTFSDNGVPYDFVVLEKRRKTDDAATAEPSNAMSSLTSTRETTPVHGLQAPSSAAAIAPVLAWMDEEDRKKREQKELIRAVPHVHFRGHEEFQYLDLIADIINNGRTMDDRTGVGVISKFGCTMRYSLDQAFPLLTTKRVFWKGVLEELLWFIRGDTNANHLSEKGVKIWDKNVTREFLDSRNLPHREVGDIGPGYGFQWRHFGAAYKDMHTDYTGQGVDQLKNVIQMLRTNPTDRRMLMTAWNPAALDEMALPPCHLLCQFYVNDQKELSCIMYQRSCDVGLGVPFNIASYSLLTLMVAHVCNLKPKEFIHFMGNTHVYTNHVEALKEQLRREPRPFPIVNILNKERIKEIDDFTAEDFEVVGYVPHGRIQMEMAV
assay_readout: IC50 (µM)
Numbers only; they are read as µM.

Data point: Nc1nc(N)c2nc(CN3c4ccccc4CCc4ccccc43)cnc2n1 ; IC50 = 0.91

----------
Target: Pneumocystis carinii dihydrofolate reductase (Pneumocystis carinii, UniProt P16184)
Sequence (P16184 1-206): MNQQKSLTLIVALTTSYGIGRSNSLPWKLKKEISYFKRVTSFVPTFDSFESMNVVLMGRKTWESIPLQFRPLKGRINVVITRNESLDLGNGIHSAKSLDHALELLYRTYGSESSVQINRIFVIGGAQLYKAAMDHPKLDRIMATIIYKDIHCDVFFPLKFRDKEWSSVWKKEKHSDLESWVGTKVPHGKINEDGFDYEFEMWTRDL
Assay: biochemical
Assay type: biochemical
Conditions: ratio of IC50 values; cmpds 6 and 7 from mean values
assay_readout: selectivity ratio rat liver/ P.carinii
// return a plain number; no unit text

Check out these entries, answers already filled in.
Nc1nc(N)c2nc(CN3c4ccccc4CCc4ccccc43)cnc2n1 [Example 6]; 3.6
Nc1nc(N)c2nc(CN3c4ccccc4C=Cc4ccccc43)cnc2n1 [Example 7]; 25

compound Nc1nc(N)c2nc(CN3c4ccccc4Sc4ccccc43)cnc2n1 [Example 5] , selectivity ratio rat liver/ P.carinii observed: 1.7

Note to self: selectivity ratio rat liver/ P.carinii recorded for Nc1nc(N)c2nc(CN(c3ccccc3)c3ccccc3)cnc2n1 [Example 1] was 0.57

----------
Listed here are compounds together with their documented IC50.
Target: rat liver dihydrofolate reductase (Rattus norvegicus)
Construct: dihydrofolate reductase (DHFR) from rat liver; from tissue; host or cells: rat liver
Sequence (Q920D2 1-187): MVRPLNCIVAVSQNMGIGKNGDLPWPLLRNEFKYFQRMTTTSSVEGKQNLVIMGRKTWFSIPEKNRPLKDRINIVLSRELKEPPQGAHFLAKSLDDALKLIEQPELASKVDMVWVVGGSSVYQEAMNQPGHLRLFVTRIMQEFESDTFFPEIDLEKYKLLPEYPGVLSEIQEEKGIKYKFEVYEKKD
Assay: Dihydrofolate reductase inhibition, rat liver DHFR
Assay type: biochemical
Conditions: read-out: DHFR inhibition (IC50 μM) rat liver
# value in µM; strip the unit string

Nc1nc(N)c2nc(CN3c4ccccc4CCc4ccccc43)cnc2n1 [Example 6]; 5.1

Next:
Reported IC50 for Nc1nc(N)c2nc(CN(c3ccccc3)c3ccccc3)cnc2n1 [Example 1] was 2.8

Attribution: patent US7056911B1
